B1: SMARCE1 (parent)
chain: YHNSPAYLAYINAKSRAEAALEEE

variants of: B1; test: protein stability index of a GFP-peptide fusion (GPS, HEK-293T) (PSI 1-6); higher = more stable; settings: c terminus: a fixed tail appended;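 note: lentivirally expressed fusions sorted by FACS into six bins by GFP to DsRed ratio, PSI derived from sequencing read proportions per bin multiplied by bin number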
PROPERTY_NAME: protein stability index
// response body must contain only the number

1. E22W; 2.29

Provide one value: measured protein stability index of "A9Q"
1.84

Give recorded protein stability index. "A13D"
1.94

For the variant "A9N" , report protein stability index.
2.39

For the variant "L8P" , give its reported protein stability index.
1.81

Write down protein stability index measured for item "E24F"
2.59

Determine its reported protein stability index: "E23M"
1.52

Name the recorded protein stability index of the item "A13T" in your answer.
2.28

Provide only the value of recorded protein stability index for "Y1W"
4.52
